Can you tell me viability, T/C for the items I'm about to list?
- Tested on: 328373-195-R-J1-PDC complex spheroids, viability % test/control;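 note: spheroids exposed to the agents for 7 days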
- assay.name: Anticancer human tumor 328373-195-R-J1-PDC patient-derived head and neck squamous carcinoma cell line growth inhibition [CLK]
- condition: second compound 3.16 µM; first compound 0.316 µM; stronger effect = lower value
Write the answer as a number in %, unit excluded.

Query: Fill in the blank: the reported viability, T/C of CCN1CCN(Cc2ccc(Nc3ncc(F)c(-c4cc(F)c5nc(C)n(C(C)C)c5c4)n3)nc2)CC1 + CNC(=O)c1ccc(Nc2nc(OC3CCCC3)c3c(-c4ccc5nc(C)oc5c4)c[nH]c3n2)c(OC)c1 is ____.
Response: 15.9

Query: Look up viability, T/C for this molecule: CCc1c2c(nc3ccc(O)cc13)-c1cc3c(c(=O)n1C2)COC(=O)[C@]3(O)CC + CN1CCN(c2cc(C(=O)Nc3cc4cc(-c5cnn(C)c5)ccc4cn3)ccn2)CC1
Response: 2.52

Query: # input molecule: CC1COCCN1c1cc(C2(S(C)(=N)=O)CC2)nc(-c2ccnc3[nH]ccc23)n1 (stereo not given) + CNC(=O)c1ccc(Nc2nc(OC3CCCC3)c3c(-c4ccc5nc(C)oc5c4)c[nH]c3n2)c(OC)c1 ; wanted: its viability, T/C
Response: 8.57

Query: Which value of viability, T/C has been reported for O=c1[nH]cc(F)c(=O)[nH]1 + CNC(=O)c1ccc(Nc2nc(OC3CCCC3)c3c(-c4ccc5nc(C)oc5c4)c[nH]c3n2)c(OC)c1 in the records?
Response: 3.65

Query: Please look up its viability, T/C: C=C(F)C(=O)N1CCN(c2nc(OCC3CCCN3C)nc3c2CCN(c2cccc4cccc(Cl)c24)C3)CC1CC#N (stereo not given) + CNC(=O)c1ccc(Nc2nc(OC3CCCC3)c3c(-c4ccc5nc(C)oc5c4)c[nH]c3n2)c(OC)c1
Response: 9.7
